system: Heterodera zeae; assay: Nematicidal activity against Heterodera zeae infective stage larvae assessed as nematode mortality at 1% under light conditions measured 72 hr post dose by stereoscopic microscopy; assay type: functional
Consider the following compounds; for each one, report its mortality.
Your reply should be a number followed by the unit it is expressed in.

Complete the entry with mortality for CCCCCCCCCCCCCCCC(=O)O [PALMITIC ACID]
80%

Complete the entry with mortality for CCCCCCCCCCCCCC(=O)O [MYRISTIC ACID]
80%

Complete the entry with mortality for COc1c(O[C@@H]2O[C@H](CO)[C@@H](O)[C@H](O)[C@H]2O)cc2oc(-c3ccc(O)c(O)c3)c(O)c(=O)c2c1O [PATULITRIN]
50%

====

test system: Heterodera zeae; test: Nematicidal activity against Heterodera zeae infective stage larvae assessed as nematode mortality at 0.125% under light conditions measured 48 hr post dose by stereoscopic microscopy; type: functional
Consider the following compounds; for each one, report its mortality.
Numeric only. Scale: %

Complete the entry with mortality for CCCCCCCCCCCCCCCC(=O)O [PALMITIC ACID]
0

Complete the entry with mortality for CNC(=O)Oc1cccc2c1OC(C)(C)C2 [CARBOFURAN]
100

Complete the entry with mortality for COc1c(O[C@@H]2O[C@H](CO)[C@@H](O)[C@H](O)[C@H]2O)cc2oc(-c3ccc(O)c(O)c3)c(O)c(=O)c2c1O [PATULITRIN]
0

Complete the entry with mortality for CCCCCCCCCCCCCCCCCC(=O)O [STEARIC ACID]
50

Complete the entry with mortality for O=C(O)c1ccc(O)cc1 [PARABEN]
40

Complete the entry with mortality for COc1ccc(C(=O)O)cc1OC [VERATRIC ACID]
50

Complete the entry with mortality for CCCCCCCCCCCCCC(=O)O [MYRISTIC ACID]
20

Complete the entry with mortality for O=c1c(O)c(-c2ccc(O)c(O)c2)oc2cc(O)cc(O)c12 [QUERCETIN]
50

Complete the entry with mortality for COc1ccc(C(=O)O)cc1 [p-ANISIC ACID]
10

Complete the entry with mortality for COc1cc(C(=O)O)cc(OC)c1OC [3,4,5-TRIMETHOXYBENZOIC ACID]
100

====

system: Heterodera zeae; assay: Nematicidal activity against Heterodera zeae infective stage larvae assessed as nematode mortality at 1% under dark conditions measured 72 hr post dose by stereoscopic microscopy; type: functional
Decision: mortality compared against 80%; not below it gives Criterion met, below it gives Criterion not met.

Has COc1ccc(C(=O)O)cc1 a recorded mortality greater than or equal to 80%?
Criterion met

Has CCCCCCCCCCCCCC(=O)O a recorded mortality greater than or equal to 80%?
Criterion met

Has CCCCCCCCCCCCCCCCO a recorded mortality greater than or equal to 80%?
Criterion met

Has O=C(O)c1ccc(O)cc1 a recorded mortality greater than or equal to 80%?
Criterion not met

Has COc1ccc(C(=O)O)cc1OC a recorded mortality greater than or equal to 80%?
Criterion met

Has COc1c(O)cc2oc(-c3ccc(O)c(O)c3)c(O)c(=O)c2c1O a recorded mortality greater than or equal to 80%?
Criterion not met

Has COc1c(O[C@@H]2O[C@H](CO)[C@@H](O)[C@H](O)[C@H]2O)cc2oc(-c3ccc(O)c(O)c3)c(O)c(=O)c2c1O a recorded mortality greater than or equal to 80%?
Criterion not met

Has O=c1c(O)c(-c2ccc(O)c(O)c2)oc2cc(O)cc(O)c12 a recorded mortality greater than or equal to 80%?
Criterion not met

Source of measurements: ChEMBL document CHEMBL3046615
